- Tested on: Clostridium perfringens
- procedure.text: microbe, parasite or virus in culture
- Format: cell-based
- condition.set: Clostridium perfringens, read-out: MIC value against Clostridium perfringens, strain H13-1 (H-type)
Exercise: for every item that follows, state its recorded MIC.
Give bare numbers, in µg/mL.

Worked examples, 4 compounds total:
mol: CCC[C@@H]1C[C@@H](C(=O)N[C@@H]([C@H]2O[C@H](SC)[C@H](O)[C@@H](O)[C@H]2O)[C@@H](C)O)N(C)C1
observed.property: MIC
assay.value: 4
//
mol: O=C(Nc1ccc(C(F)(F)F)c(Cl)c1Cl)c1cc(Cl)ccc1O
observed.property: MIC
assay.value: 0.5
//
mol: CC[C@H]1OC(=O)C[C@@H](O)[C@H](C)[C@@H](O[C@@H]2O[C@H](C)[C@@H](O)[C@H](N(C)C)[C@H]2O)[C@@H](CCN2C[C@H](C)C[C@H](C)C2)C[C@@H](C)C(=O)/C=C/C(C)=C/[C@@H]1CO[C@@H]1O[C@H](C)[C@@H](O)[C@@H](OC)[C@H]1OC
observed.property: MIC
assay.value: 4
//
mol: C[C@H]1c2cccc(O)c2C(=O)C2=C(O)[C@]3(O)C(=O)C(C(N)=O)=C(O)[C@@H](N(C)C)[C@@H]3[C@@H](O)[C@@H]21
observed.property: MIC
assay.value: 8

Attention now shifts to the item below.
Sure, the documented MIC for C=C[C@]1(C)C[C@@H](OC(=O)CSCCN(CC)CC)[C@]2(C)[C@H](C)CC[C@]3(CCC(=O)[C@H]32)[C@@H](C)[C@@H]1O is 4

---

- procedure.text: Pharmacokinetics in rabbit plasma after intramuscular injection
- Type: in vivo, rabbits
- condition.set: male, Chinese white, rabbit, plasma, im; rabbits, intramuscular injection, 20 mg/kg b.w.
- Method: In order to investigate the metabolic residues of BAB159 in model animals, rabbits were used as animal models to quantitatively analyze the levels of BAB159 in rabbit plasma. Male Chinese white rabbits weighing around 2 kg were adaptively fed for one week. Then, 2 mL of BAB159 suspension was injected into the left hind thigh muscle of the rabbits at a dose of 20 mg/kg b.w. […]
observed.property: AUC(0-t) (ng·h/mL)
One number for each entry, in ng·h/mL.

Sure, the documented AUC(0-t) for O=C(Nc1ccc(C(F)(F)F)c(Cl)c1Cl)c1cc(Cl)ccc1O [BAB159] is 1640

---

- procedure.text: Pharmacokinetics in rabbit plasma after intramuscular injection
- Format: in vivo, rabbits
- condition.set: male, Chinese white, im; rabbit plasma, intramuscular injection, 20 mg/kg b.w.
observed.property: Tmax

Sure, the documented Tmax for O=C(Nc1ccc(C(F)(F)F)c(Cl)c1Cl)c1cc(Cl)ccc1O is 6 h

---

Exercise: for every item that follows, state its recorded MIC.
- Test system: Clostridium perfringens
- procedure.text: microbe, parasite or virus in culture
- Format: cell-based
- condition.set: Clostridium perfringens, read-out: MIC value against Clostridium perfringens, strain A57-1 (A-type)

mol: CCC[C@@H]1C[C@@H](C(=O)N[C@@H]([C@H]2O[C@H](SC)[C@H](O)[C@@H](O)[C@H]2O)[C@@H](C)O)N(C)C1
measurement.target: Clostridium perfringens
MIC: 2 µg/mL
--
mol: C=C[C@]1(C)C[C@@H](OC(=O)CSCCN(CC)CC)[C@]2(C)[C@H](C)CC[C@]3(CCC(=O)[C@H]32)[C@@H](C)[C@@H]1O
measurement.target: Clostridium perfringens
MIC: 4 µg/mL
--
mol: CO/N=C(\C(=O)N[C@@H]1C(=O)N2C(C(=O)O)=C(CSC(=O)c3ccco3)CS[C@H]12)c1csc(N)n1
measurement.target: Clostridium perfringens
MIC: ≤ 0.25 µg/mL
--
mol: CC[C@H]1OC(=O)C[C@@H](O)[C@H](C)[C@@H](O[C@@H]2O[C@H](C)[C@@H](O)[C@H](N(C)C)[C@H]2O)[C@@H](CCN2C[C@H](C)C[C@H](C)C2)C[C@@H](C)C(=O)/C=C/C(C)=C/[C@@H]1CO[C@@H]1O[C@H](C)[C@@H](O)[C@@H](OC)[C@H]1OC
measurement.target: Clostridium perfringens
MIC: 4 µg/mL
--
mol: C[C@H]1c2cccc(O)c2C(=O)C2=C(O)[C@]3(O)C(=O)C(C(N)=O)=C(O)[C@@H](N(C)C)[C@@H]3[C@@H](O)[C@@H]21
measurement.target: Clostridium perfringens
MIC: ≤ 0.25 µg/mL

Attention now shifts to the item below.
Sure, the documented MIC for O=C(Nc1ccc(C(F)(F)F)c(Cl)c1Cl)c1cc(Cl)ccc1O is 0.25 µg/mL
